Item-by-item account of kon
Molecular target: T1, C-terminally FLAG-tagged human Gas6 recombinant protein (hGas6-F) (human, UniProt Q14393 31-678, gamma-carboxylated glutamic acid residues in the Gla domain (producer cells co-express rat VKOR and human GGCX); positions not given)
T1 construct: also called human Gas6-F; human Gas6 protein
T1 sequence: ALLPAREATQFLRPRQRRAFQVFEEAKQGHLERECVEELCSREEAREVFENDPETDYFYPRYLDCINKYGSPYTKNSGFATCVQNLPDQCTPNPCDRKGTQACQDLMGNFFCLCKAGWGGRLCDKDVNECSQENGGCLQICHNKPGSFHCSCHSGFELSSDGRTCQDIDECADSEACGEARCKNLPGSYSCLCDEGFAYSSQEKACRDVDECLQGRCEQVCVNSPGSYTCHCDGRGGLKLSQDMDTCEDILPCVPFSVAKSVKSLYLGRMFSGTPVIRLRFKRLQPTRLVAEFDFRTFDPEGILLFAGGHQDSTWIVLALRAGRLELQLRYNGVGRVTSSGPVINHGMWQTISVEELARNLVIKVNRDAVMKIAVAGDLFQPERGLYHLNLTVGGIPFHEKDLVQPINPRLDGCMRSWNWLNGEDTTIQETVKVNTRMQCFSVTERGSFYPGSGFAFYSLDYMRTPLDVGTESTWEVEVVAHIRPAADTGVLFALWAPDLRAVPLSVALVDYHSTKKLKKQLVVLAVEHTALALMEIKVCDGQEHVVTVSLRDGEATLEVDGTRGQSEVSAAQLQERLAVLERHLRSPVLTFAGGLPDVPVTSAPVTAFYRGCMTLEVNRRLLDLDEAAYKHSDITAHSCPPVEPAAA
Experiment: SPR Biacore T100, captured antibody, Gas6 analyte, first test

Past entries and their recorded results:
# Binder, kon
measured = [
    ("hzKM5321 LV6HV3a antibody (antibody, V domains shown, Humanized; variant human IgG4 constant region (EU S228P, L235E, R409K), human kappa; also called B-25; LV6HV3a) VH: QVHLVQSGPELKKPGASVKISCKASGYTFTNYGMNWVRQAPGQGLKWMGWINTNTGEPTYTEEFKGRFVFSLDTSVTTSYLQISTLKAEDTATYFCARDEGWFVYWGQGTLVTVSS VL: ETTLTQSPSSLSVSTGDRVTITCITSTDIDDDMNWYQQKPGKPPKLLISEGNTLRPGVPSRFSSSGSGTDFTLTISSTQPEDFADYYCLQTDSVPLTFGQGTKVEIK", "> 105000 M⁻¹ s⁻¹"),
    ("hzKM5321 LV6HV4a antibody (antibody, V domains shown, Humanized; variant human IgG4 constant region (EU S228P, L235E, R409K), human kappa; also called B-27; LV6HV4a) VH: QIHLVQSGPELKKPGASVKISCKASGYTFTNYGMNWVRQAPGQGLEWMGWINTNTGEPTYTEEFKGRFVFSLDTSVTTAYLQISTLKAEDTAVYFCARDEGWFVYWGQGTLITVSS VL: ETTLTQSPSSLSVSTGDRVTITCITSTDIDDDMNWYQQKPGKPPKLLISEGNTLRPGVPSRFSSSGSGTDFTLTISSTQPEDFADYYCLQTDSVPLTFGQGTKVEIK", "> 106000 M⁻¹ s⁻¹"),
    ("hzKM5320 LV5HV4 antibody (antibody, V domains shown, Humanized; variant human IgG4 constant region (EU S228P, L235E, R409K), human kappa; also called A-24) VH: QVQLVQSGPELKKPGASVKVSCKASGYTFTNYGMNWVRQAPGQGLKWMGWINTETGEPTYSDDFKGRFVFSLDTSVSTAYLQISSLKAEDTATYFCAREDGYYGTLDYWGQGTTVTVSS VL: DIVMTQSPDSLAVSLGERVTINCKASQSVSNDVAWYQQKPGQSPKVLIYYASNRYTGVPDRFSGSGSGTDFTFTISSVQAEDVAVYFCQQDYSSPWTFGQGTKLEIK", "> 79200 M⁻¹ s⁻¹"),
    ("hzKM5321 LV0HV0 antibody (antibody, V domains shown, Humanized; variant human IgG4 constant region (EU S228P, L235E, R409K), human kappa; also called B-02; LV0HV0) VH: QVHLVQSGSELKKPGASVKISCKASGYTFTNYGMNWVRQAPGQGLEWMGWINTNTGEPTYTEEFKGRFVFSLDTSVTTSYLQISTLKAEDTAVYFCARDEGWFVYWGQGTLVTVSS VL: ETTLTQSPSSLSASVGDRVTITCITSTDIDDDMNWYQQKPGKAPKLLISEGNTLRPGVPSRFSGSGSGTDFTLTISSLQPEDFATYYCLQTDSVPLTFGQGTKVEIK", "> 131000 M⁻¹ s⁻¹"),
]

Any idea what kon was measured for hzKM5321 LV1aHV7 antibody (antibody, V domains shown, Humanized; variant human IgG4 constant region (EU S228P, L235E, R409K), human kappa; also called B-13; LV1aHV7) VH: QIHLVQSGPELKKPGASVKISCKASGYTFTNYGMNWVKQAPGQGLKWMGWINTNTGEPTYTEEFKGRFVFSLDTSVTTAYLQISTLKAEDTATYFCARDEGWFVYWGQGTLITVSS VL: ETTLTQSPSSLSASVGDRVTITCITSTDIDDDMNWYQQKPGKPPKLLISEGNTLRPGVPSRFSGSGSGTDFTLTISSLQPEDFATYYCLQTDSVPLTFGQGTKVEIK ?
> 100000 M⁻¹ s⁻¹
